target: T1, M5-2; test: scFv-phage ELISA
T1 construct: also called PD1 mutant M5-2
Value kind: OD490

Binder | Reported result
PD1-49A2 (antibody, V domains shown, scFv-phage in the screening ELISA; whole IgG in the other assays; also called Parent 49A2) VH: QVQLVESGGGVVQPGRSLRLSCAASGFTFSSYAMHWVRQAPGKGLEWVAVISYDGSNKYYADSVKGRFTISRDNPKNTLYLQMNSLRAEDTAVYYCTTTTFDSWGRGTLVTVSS VL: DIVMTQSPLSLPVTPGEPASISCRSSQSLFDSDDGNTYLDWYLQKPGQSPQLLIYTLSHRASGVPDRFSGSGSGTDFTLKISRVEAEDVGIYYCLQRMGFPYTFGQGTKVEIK | 3.8
PD1-41C9 (antibody, V domains shown, scFv-phage in the screening ELISA; whole IgG in the other assays) VH: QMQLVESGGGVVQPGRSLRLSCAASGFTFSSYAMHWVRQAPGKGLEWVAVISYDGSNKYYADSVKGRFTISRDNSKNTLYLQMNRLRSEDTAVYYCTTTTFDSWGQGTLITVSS VL: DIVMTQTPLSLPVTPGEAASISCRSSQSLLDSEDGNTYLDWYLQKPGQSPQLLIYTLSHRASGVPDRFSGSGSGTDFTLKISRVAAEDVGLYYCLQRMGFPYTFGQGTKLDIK | 3.6
PD1-52E8 (antibody, V domains shown, scFv-phage in the screening ELISA; whole IgG in the other assays) VH: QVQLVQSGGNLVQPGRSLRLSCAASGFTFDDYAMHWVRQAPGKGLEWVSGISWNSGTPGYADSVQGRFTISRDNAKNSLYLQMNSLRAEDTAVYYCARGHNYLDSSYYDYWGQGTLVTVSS VL: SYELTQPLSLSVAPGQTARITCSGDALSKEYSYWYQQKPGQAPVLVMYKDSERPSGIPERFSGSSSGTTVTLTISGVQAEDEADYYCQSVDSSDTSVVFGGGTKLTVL | 3.5
PD1-32A6 (antibody, V domains shown, scFv-phage in the screening ELISA; later whole IgG) VH: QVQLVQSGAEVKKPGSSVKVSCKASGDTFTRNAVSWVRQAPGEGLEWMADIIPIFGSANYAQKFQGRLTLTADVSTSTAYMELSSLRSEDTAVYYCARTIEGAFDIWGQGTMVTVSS VL: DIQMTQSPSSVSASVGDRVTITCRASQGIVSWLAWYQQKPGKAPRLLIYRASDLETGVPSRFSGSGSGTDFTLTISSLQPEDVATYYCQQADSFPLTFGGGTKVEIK | 2.8
